For each of the binders below, state its IC50 (read off the curve).
STUDY_SYSTEM: Programmed Death 1 (PD-1) (UniProt Q15116 25-167, limits assumed)
Sequence (Q15116 25-167 limits assumed): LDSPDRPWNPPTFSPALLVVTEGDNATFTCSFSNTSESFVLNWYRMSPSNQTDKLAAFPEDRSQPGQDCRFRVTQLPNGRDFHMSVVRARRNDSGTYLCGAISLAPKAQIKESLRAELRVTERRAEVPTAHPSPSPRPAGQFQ
PROTOCOL_NOTES: FACS ligand blocking: binding of PD-L1-Ig to PD-1 at increasing mAb concentration (legend paragraph 212 names 'PD-L1-Ig and PD-L2-Ig' for FIG. 8A)

Give recorded IC50 (read off the curve). BAP049-hum05 (antibody, human IgG4 S228P, kappa, V domains shown, Humanized mAb) VH: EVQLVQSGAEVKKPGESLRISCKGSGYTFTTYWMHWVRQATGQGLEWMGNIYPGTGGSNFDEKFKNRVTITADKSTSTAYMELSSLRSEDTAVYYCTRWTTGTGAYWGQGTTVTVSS VL: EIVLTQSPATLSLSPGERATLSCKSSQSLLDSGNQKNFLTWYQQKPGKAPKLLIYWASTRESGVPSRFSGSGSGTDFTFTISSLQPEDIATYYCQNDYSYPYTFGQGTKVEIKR
~1 µg/mL

Read the entry Mu mAb (antibody, V domains shown, Unlabelled when its concentration is varied; also called murine anti-PD-1 mAb BAP049; Mu mAb control) VH: QVQLQQSGSELVRPGASVKLSCKASGYTFTTYWMHWVRQRPGQGLEWIGNIYPGTGGSNFDEKFKNRTSLTVDTSSTTAYMHLASLTSEDSAVYYCTRWTTGTGAYWGQGTLVTVSA VL: DIVMTQSPSSLTVTAGEKVTMSCKSSQSLLDSGNQKNFLTWYQQKPGQPPKLLIFWASTRESGVPDRFTGSGSVTDFTLTISSVQAEDLAVYYCQNDYSYPCTFGGGTKLEIK and write its reported IC50 (read off the curve).
~0.7 µg/mL

Tell me IC50 (read off the curve) reported for Chi mAb (Tyr) (antibody, human IgG4 S228P, kappa, V domains shown, also called BAP049-chi-Y; Chi (Tyr)) VH: QVQLQQSGSELVRPGASVKLSCKASGYTFTTYWMHWVRQRPGQGLEWIGNIYPGTGGSNFDEKFKNRTSLTVDTSSTTAYMHLASLTSEDSAVYYCTRWTTGTGAYWGQGTTVTVSS VL: DIVMTQSPSSLTVTAGEKVTMSCKSSQSLLDSGNQKNFLTWYQQKPGQPPKLLIFWASTRESGVPDRFTGSGSVTDFTLTISSVQAEDLAVYYCQNDYSYPYTFGQGTKVEIKR
~0.9 µg/mL

Determine its reported IC50 (read off the curve): BAP049-hum01 (antibody, human IgG4 S228P, kappa, V domains shown, Humanized mAb) VH: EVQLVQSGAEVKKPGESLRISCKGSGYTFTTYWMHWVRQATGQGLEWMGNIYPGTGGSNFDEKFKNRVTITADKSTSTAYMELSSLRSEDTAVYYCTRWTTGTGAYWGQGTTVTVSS VL: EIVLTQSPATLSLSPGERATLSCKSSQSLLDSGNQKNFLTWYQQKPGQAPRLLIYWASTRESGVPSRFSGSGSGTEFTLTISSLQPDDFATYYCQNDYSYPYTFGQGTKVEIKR
~1 µg/mL
